test: Biodistribution of 99mTc(N)(X)(DTC)+ heterocomplexes in rats; type: in vivo, male Spraque-Dawley rats (SD rats); conditions: 4 hr after injection
readout-kind: Kidney % dose/g (% dose/g)

Consider the worked cases shown below.
COCCC[P]1(CCCOC)CCN(CCOC)CC[P](CCCOC)(CCCOC)[99Tc+]12(#[N])[NH]N(C)C(SC)=[S]2 [^99mTc(N)(PNP3)(DTC)^+]	2.536
CSC1=[S+][99Tc-2]2(#[N])([NH]N1C)[P+](c1ccccc1)(c1ccccc1)CCOCC[P+]2(c1ccccc1)c1ccccc1 [^99mTc(N)(POP)(DTC)^+]	1.745

[P] COCCN1CC[P+](c2ccccc2)(c2ccccc2)[99Tc-2]2(#[N])([NH]N(C)C(SC)=[S+]2)[P+](c2ccccc2)(c2ccccc2)CC1 [^99mTc(N)(PNP2)(DTC)^+]
[Q] CCCN1CC[P+](c2ccccc2)(c2ccccc2)[99Tc-2]2(#[N])([NH]N(C)C(SC)=[S+]2)[P+](c2ccccc2)(c2ccccc2)CC1 [^99mTc(N)(PNP1)(DTC)^+]
When their Kidney % dose/g values are compared, which is larger, P or Q ? Please reply using the label of the selected record.
P
(P: 7.471 % dose/g, Q: 4.282 % dose/g)

---

experiment: Biodistribution of 99mTc(N)(X)(DTC)+ heterocomplexes in rats; type: in vivo, male Spraque-Dawley rats (SD rats)
readout-kind: Spleen % dose/g (% dose/g)

Examples with their reported Spleen % dose/g follow.
CSC1=[S+][99Tc-2]2(#[N])([NH]N1C)[P+](c1ccccc1)(c1ccccc1)CCOCC[P+]2(c1ccccc1)c1ccccc1 [^99mTc(N)(POP)(DTC)^+]	2.202
CCCN1CC[P+](c2ccccc2)(c2ccccc2)[99Tc-2]2(#[N])([NH]N(C)C(SC)=[S+]2)[P+](c2ccccc2)(c2ccccc2)CC1 [^99mTc(N)(PNP1)(DTC)^+]	1.948

[I] COCCC[P]1(CCCOC)CCN(CCOC)CC[P](CCCOC)(CCCOC)[99Tc+]12(#[N])[NH]N(C)C(SC)=[S]2 [^99mTc(N)(PNP3)(DTC)^+]
[II] COCCN1CC[P+](c2ccccc2)(c2ccccc2)[99Tc-2]2(#[N])([NH]N(C)C(SC)=[S+]2)[P+](c2ccccc2)(c2ccccc2)CC1 [^99mTc(N)(PNP2)(DTC)^+]
I or II : whose Spleen % dose/g is greater? Output the label that corresponds to your choice.
II

---

assay: Biodistribution of 99mTc(N)(X)(DTC)+ heterocomplexes in rats; assay type: in vivo, male Spraque-Dawley rats (SD rats); conditions: 30 min after injection
readout-kind: Brain % dose/g (% dose/g)

CCCN1CC[P+](c2ccccc2)(c2ccccc2)[99Tc-2]2(#[N])([NH]N(C)C(SC)=[S+]2)[P+](c2ccccc2)(c2ccccc2)CC1 [^99mTc(N)(PNP1)(DTC)^+]	0.027

[1] COCCN1CC[P+](c2ccccc2)(c2ccccc2)[99Tc-2]2(#[N])([NH]N(C)C(SC)=[S+]2)[P+](c2ccccc2)(c2ccccc2)CC1 [^99mTc(N)(PNP2)(DTC)^+]
[2] COCCC[P]1(CCCOC)CCN(CCOC)CC[P](CCCOC)(CCCOC)[99Tc+]12(#[N])[NH]N(C)C(SC)=[S]2 [^99mTc(N)(PNP3)(DTC)^+]
Please compare: 1 and 2 . Report which one has the smaller Brain % dose/g value. Your answer should be the label attached to the chosen record.
2
(2: 0.012 % dose/g, 1: 0.020 % dose/g)
